Data origin: patent US8426417B2

test-system: PLK1 enzyme KD (Kinase Domain) 2-345 (Homo sapiens, UniProt P53350)
Construct: PLK1 kinase domain (corresponding to residues 2-345) was PCR amplified; His tag (N, cleaved yes); TEV cleavage site (N, cleaved yes)
Sequence (P53350 2-345): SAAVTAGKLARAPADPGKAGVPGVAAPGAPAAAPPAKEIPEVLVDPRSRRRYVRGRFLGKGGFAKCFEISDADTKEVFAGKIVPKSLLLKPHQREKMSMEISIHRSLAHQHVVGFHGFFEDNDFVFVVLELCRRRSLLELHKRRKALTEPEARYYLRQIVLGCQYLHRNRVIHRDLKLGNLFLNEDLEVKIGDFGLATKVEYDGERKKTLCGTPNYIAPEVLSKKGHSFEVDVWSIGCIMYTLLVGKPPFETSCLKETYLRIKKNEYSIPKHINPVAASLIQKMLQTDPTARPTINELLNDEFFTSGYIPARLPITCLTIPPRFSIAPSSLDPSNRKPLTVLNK
assay-details: Biochemical assay for inhibitors of PLK-1 kinase activity (trans-phosphorylation, Dowex resin, 33P-ATP)
conditions: PLK1 KD 2-345 3 nM, 40 microM ATP, 85 microM alpha-casein, 60 minutes at room temperature
measured-metric: IC50 (nM)
Express the result in nM but write the number alone.

Prompt line: Which measured IC50 belongs to O=C1NCCc2[nH]c(-c3ccnc(Nc4ccccc4)n3)cc21 [Reference Compound] , tested on PLK1 enzyme KD (Kinase Domain) 2-345 (Homo sapiens, UniProt P53350)?
Response line: 110
